Entries and their GI50 values follow.
system: CAKI-1 renal; assay: NCI tumour cell line growth inhibition, 48 h
Metric Name: GI50

# Molecule, Metric Name, Measured
data = [
    ("Cc1nc2cccc(NCc3ccc(C(=O)NO)cc3)c2c(=O)n1-c1ccccc1", "GI50", "1670 nM"),
    ("S=C(Nc1ccc(Cl)cc1)Nc1ccc(Cl)cc1 (tested in a mixture with another compound)", "GI50", "2150 nM"),
    ("COc1ccc(-c2nc(-c3ccccc3)c(-c3ccccc3)n2C2CC2)cc1OC1CCCC1", "GI50", "50200 nM"),
]

* * *

Entries and their TGI values follow.
tested on: LXFL 529 NSCLC; assay: NCI tumour cell line growth inhibition, 48 h

# Compound, Target Desc, Value Comparator, TGI (µM)
data = [
    ("CCC1(N=[N+]=[N-])C(=O)Nc2cc(C)ccc2C1=O (stereo unspecified)", "LXFL 529 NSCLC", ">", 100),
    ("Cc1cc2c(s1)C(=O)c1sccc1C2=O", "LXFL 529 NSCLC", "=", 2.5),
    ("O=C(c1ccncc1)n1nc(-c2ccccc2)c(N=Nc2ccc([N+](=O)[O-])cc2)c1-c1ccccc1", "LXFL 529 NSCLC", "=", 25.7),
    ("COC[n+]1cc2cc(OC)c(OC)cc2c2ccc3cc(OC)c(OC)cc3c21", "LXFL 529 NSCLC", ">", 100),
    ("CCOC(=O)c1ccc(N2C(=O)/C(=C\\OC)c3ccccc3C2=O)cc1", "LXFL 529 NSCLC", "=", 89.1),
    ("Cc1cc(C)nc(Nc2nc3ccc([N+](=O)[O-])cc3[nH]2)n1", "LXFL 529 NSCLC", ">", 100),
    ("CC(=O)Nc1ccc(C2[C@H]3C(=O)N(c4ccc(Cc5ccc(N6C(=O)[C@@H]7ON(c8ccccc8)C(c8ccc(NC(C)=O)cc8)[C@@H]7C6=O)cc5)cc4)C(=O)[C@H]3ON2c2ccccc2)cc1 (stereo partly specified)", "LXFL 529 NSCLC", ">", 100),
    ("C=C1CC[C@@H]2C(C)(C)CCC[C@@]2(C)[C@@H]1Cc1cc(O)ccc1O", "LXFL 529 NSCLC", "=", 6.68),
    ("CCOC(=O)C(C)c1cc(C2(C)OCCO2)c(C)o1 (stereo unspecified)", "LXFL 529 NSCLC", ">", 100),
    ("O=C(O)c1cc2c(cn1)[nH]c1ccccc12", "LXFL 529 NSCLC", ">", 100),
    ("CC(C(=O)Oc1ccc2ccccc2c1-c1c(O)ccc2ccccc12)c1ccccc1 (stereo unspecified)", "LXFL 529 NSCLC", "=", 27.1),
]

* * *

Entries and their TGI values follow.
system: MDA-MB-231 breast; assay: NCI tumour cell line growth inhibition, 48 h
Metric Name: TGI

# Compound Structure, Measured
records = [
    ("O=C(NOCC1CC1)c1ccc(F)c(F)c1Nc1ccc(I)cc1Cl", "14.7 µM"),
    ("CCC(=O)COc1ccc(NC(NC(=O)C(C(F)(F)F)C(F)(F)F)(C(F)(F)F)C(F)(F)F)cc1", "54.2 µM"),
    ("O=C1C(=O)c2ccccc2C(O)=C1C(CCc1ccccc1)C1=C(O)c2ccccc2C(=O)C1=O", "> 100 µM"),
    ("O=C(/C=C/c1ccc(O)cc1)NCCc1ccc(O)cc1", "> 12.5 µM"),
    ("N=C1C(=N)c2ccccc2-c2ccccc21", "1.16 µM"),
    ("CC[N+](CC)(CC)CCCn1c2c(c3ccccc3c1=O)C(=O)c1ccccc1-2", "84.2 µM"),
    ("CCOC(=O)Oc1c(OC)cc(C(=O)O[C@@H]2C[C@@H]3CN4CCc5c([nH]c6cc(OC)ccc56)[C@H]4C[C@@H]3[C@H](C(=O)OC)[C@H]2OC)cc1OC", "19.6 µM"),
]
